Assay: physchem
Conditions: phosphate buffer, pH 7.4
Description: Aqueous solubility in pH 7.4 phosphate buffer after 24 hrs by UPLC/MS/MS analysis
Readout: solubility at 24 h
Kindly write the number and append the unit.

- Item smiles: "O=C(Nc1cnn2cccnc12)[C@@H]1CCCC[C@H]1C(=O)c1ccc(-c2cc[nH]n2)cc1"
  solubility at 24 h: "60 µM"

# input compound: `Cn1ncc(NC(=O)[C@@H]2C[C@@H]3C[C@@H]3C[C@H]2C(=O)c2ccc(-c3cc[nH]n3)cc2)c1C(F)(F)F` ; wanted: its solubility at 24 h
63 µM

What about this compound? `COc1cc(NC(=O)[C@@H]2CCCC[C@H]2C(=O)c2ccc(-c3cc[nH]n3)cc2)ncn1`
22 µM
